Target: HLA-A*0202 (human)
Test: inhibition of 125I-labelled probe peptide binding to purified HLA; gel filtration
Metric: IC50 (nM)

A = LLWQPIPVHV (modifications not checked) [peptide 1419.69 (PAP.136.V10)]
B = TVSGLQMAV (modifications not checked) [peptide 60.0213 (PAP.292.V9)]
When A and B are compared, which has the higher number for IC50? Answer by stating the label of the chosen item. B
(B: 12 nM, A: 1.8 nM)

Data provenance: patent US20070020327A1
